Target: T1, IGFBP-3 (human, UniProt P17936 28-291)
T1 construct: also called rhIGFBP-3
T1 sequence (P17936 28-291 limits assumed): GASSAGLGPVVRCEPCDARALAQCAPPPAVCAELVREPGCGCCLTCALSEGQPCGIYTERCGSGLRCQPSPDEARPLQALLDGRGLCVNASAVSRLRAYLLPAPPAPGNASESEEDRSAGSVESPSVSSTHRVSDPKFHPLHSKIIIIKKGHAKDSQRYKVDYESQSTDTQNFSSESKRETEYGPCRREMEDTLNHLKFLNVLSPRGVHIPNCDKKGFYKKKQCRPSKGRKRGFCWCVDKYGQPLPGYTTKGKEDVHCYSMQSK
Assay: BIAcore competition: peptide inhibits IGFBP-3 binding to immobilized IGF-I
valueType: IC50
Respond with the figure and its unit, in that order.

Known results for binders:
binder	IC50
ASEEVCWPVAEWYLCN (bp3-01-ox variant) [bp3-30]	5.6 µM
EVCWPVAEWYLCN (bp3-01-ox variant) [bp3-27]	2.8 µM
EEVCWPVAEWYLCN (bp3-01-ox variant) [bp3-28]	5.4 µM

Now turn to the next binder.
Task: Query: IC50; subject: ASEEVCWPVAEWYLCNMWGR [4d3.3]
Output: 5.6 µM
